Test system: Klebsiella pneumoniae
Experimental details: Antibacterial activity against Klebsiella pneumoniae C expressing CTX-M group 1 beta-lactamase by Etest method
Assay type: functional
Task for the reader: assign each of the following compounds its reported MIC.
Numbers only, in µg/mL.

Observe how each entry below is paired with its result.
{"Compound": "NC[C@H]1O[C@H](O[C@H]2[C@H](O)[C@@H](O[C@H]3O[C@H](CO)[C@@H](O)[C@H](N)[C@H]3O)[C@H](N)C[C@@H]2N)[C@H](N)C[C@@H]1O", "MIC (µg/mL)": 32}
{"Compound": "NCC[C@H](O)C(=O)N[C@@H]1C[C@H](N)[C@@H](O[C@H]2O[C@H](CN)[C@@H](O)[C@H](O)[C@H]2O)[C@H](O)[C@H]1O[C@H]1O[C@H](CO)[C@@H](O)[C@H](N)[C@H]1O", "MIC (µg/mL)": 1.5}
{"Compound": "CC1(C)S[C@@H]2[C@H](NC(=O)[C@H](N)c3ccc(O)cc3)C(=O)N2[C@H]1C(=O)O", "MIC (µg/mL)": 6}

For each entry beneath this line, provide reported MIC.
1. CO[C@@]1(NC(=O)Cc2cccs2)C(=O)N2C(C(=O)O)=C(COC(N)=O)CS[C@@H]21
2. C[C@@H](O)[C@H]1C(=O)N2C(C(=O)O)=C(SCCNC=N)C[C@H]12 [IMIPENEM ANHYDROUS]
3. CC(C)(O/N=C(\C(=O)N[C@@H]1C(=O)N2C(C(=O)[O-])=C(C[n+]3ccccc3)CS[C@H]12)c1csc(N)n1)C(=O)O

Response:
8
0.19
16

====

Tested on: Escherichia coli
Experimental details: Antibacterial activity against Escherichia coli TrC B expressing Klebsiella pneumoniae B blaCTX-M beta-lactamase by Etest method
Type: functional
For each entry below, report its MIC value.
Numbers only, in µg/mL.

Here's what some known entries look like.
{"Compound": "NC[C@H]1O[C@H](O[C@H]2[C@H](O)[C@@H](O[C@H]3O[C@H](CO)[C@@H](O)[C@H](N)[C@H]3O)[C@H](N)C[C@@H]2N)[C@H](N)C[C@@H]1O [TOBRAMYCIN]", "Result units": "µg/mL", "MIC": 32}
{"Compound": "CC(C)(O/N=C(\\C(=O)N[C@@H]1C(=O)N2C(C(=O)[O-])=C(C[n+]3ccccc3)CS[C@H]12)c1csc(N)n1)C(=O)O [CEFTAZIDIME]", "Result units": "µg/mL", "MIC": 64}
{"Compound": "CO[C@@]1(NC(=O)Cc2cccs2)C(=O)N2C(C(=O)O)=C(COC(N)=O)CS[C@@H]21 [CEFOXITIN]", "Result units": "µg/mL", "MIC": 8}
{"Compound": "NCC[C@H](O)C(=O)N[C@@H]1C[C@H](N)[C@@H](O[C@H]2O[C@H](CN)[C@@H](O)[C@H](O)[C@H]2O)[C@H](O)[C@H]1O[C@H]1O[C@H](CO)[C@@H](O)[C@H](N)[C@H]1O [AMIKACIN]", "Result units": "µg/mL", "MIC": 4}

Query: Give the measured MIC of CO/N=C(\C(=O)N[C@@H]1C(=O)N2C(C(=O)O)=C(COC(C)=O)CS[C@H]12)c1csc(N)n1 [CEFOTAXIME] .
Response: 256
